Parameter: pIC50. Scope: all listed entries.
Target: recombinant N-terminal MLH1 (residues 15-340) (Homo sapiens, UniProt P40692)
Construct: recombinant N-terminal MLH1 (residues 15-340)
Sequence (P40692 15-340): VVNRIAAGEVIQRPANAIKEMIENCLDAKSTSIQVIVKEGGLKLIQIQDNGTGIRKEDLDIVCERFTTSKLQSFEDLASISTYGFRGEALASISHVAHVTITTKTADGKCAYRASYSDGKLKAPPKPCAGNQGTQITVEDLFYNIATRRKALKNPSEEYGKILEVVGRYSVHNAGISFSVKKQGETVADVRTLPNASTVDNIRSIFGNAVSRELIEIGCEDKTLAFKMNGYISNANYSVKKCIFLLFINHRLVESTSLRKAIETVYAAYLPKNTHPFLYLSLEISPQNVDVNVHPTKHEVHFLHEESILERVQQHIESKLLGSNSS
Assay: Fluorescence Polarisation Assay for MLH1
Conditions: 100 nM N-terminal MLH1, 5 nM probe compound
pIC50: −log10 of the molar value.

// worked examples, pIC50 included
# compound, result
data = [
    ("CN1CCN(Cc2ccc3c(c2)CN(C(=O)c2c(O)cc(C(F)F)cc2OCc2ccccc2)CC3)CC1", "6.00 to 7.00"),
    ("CN1CCN(Cc2ccc3c(c2)CCN(C(=O)c2c(O)cc(C(F)F)cc2OCc2ccccc2)C3)CC1", "6.00 to 7.00"),
    ("CC(=O)N1CCC[C@H](Nc2cccc3c2CN(C(=O)c2c(O)cc(C#N)cc2OCc2ccccc2)C3)C1", "6.00 to 7.00"),
    ("CN1CC(Nc2cccc3c2CN(C(=O)c2c(O)cc(C#N)cc2OCc2ccccc2)C3)CC1=O (stereo not drawn)", "6.00 to 7.00"),
    ("CN1CC[C@H](Nc2cccc3c2CN(C(=O)c2c(O)cc(C#N)cc2OCc2ccccc2)C3)C1=O", "6.00 to 7.00"),
    ("CN(C)Cc1ccc2c(n1)CN(C(=O)c1c(O)cc(Cl)cc1OCc1ccccc1)C2", "5.00 to 6.00"),
    ("O=C(c1c(O)cc(C(F)F)cc1OCc1ccccc1)N1Cc2cccc(OC3CCOC3)c2C1 (stereo not drawn)", "5.00 to 6.00"),
    ("O=C(c1c(O)cc(C(F)F)cc1OCc1ccccc1)N1Cc2cccc(N[C@@H]3CCOC3)c2C1", "6.00 to 7.00"),
]

[in] Fill in the blank: the reported pIC50 of COc1cc2c(c(N[C@H]3CCOC3)c1)CN(C(=O)c1c(O)cc(C#N)cc1OCc1ccccc1)C2 is ____.
[out] 6.00 to 7.00

[in] Field entry: CC(=O)N1CCC(Oc2ccc3c(c2)CN(C(=O)c2c(O)cc(C(F)F)cc2OCc2ccccc2)C3)CC1
[out] > 7.00

[in] Follow-up entry: COc1cc(C#N)cc(O)c1C(=O)N1Cc2cccc(N[C@H]3CCOC3)c2C1
[out] 5.00 to 6.00

[in] Ok, now CN1CC[C@@H](Nc2cccc3c2CN(C(=O)c2c(O)cc(C#N)cc2OCc2ccccc2)C3)C1=O
[out] 6.00 to 7.00

[in] Field entry: CN(C)Cc1ccc2c(c1)CN(C(=O)c1c(O)cc(C#N)cc1OCc1ccccc1)C2
[out] 5.00 to 6.00

[in] Same read-out for O=C(c1c(O)cc(C(F)F)cc1OCc1ccccc1)N1CCc2cc(Cn3ccnc3)cc(N[C@H]3CCOC3)c2C1 ?
[out] > 7.00

[in] Field entry: O=C(c1c(O)cc(C(F)F)cc1OCc1nc2ccccc2[nH]1)N1CCc2cccc(N[C@H]3CCOC3)c2C1
[out] 5.00 to 6.00
